For each entry below, report its EC50 value.
- TESTED TARGET: GST tagged LXRbeta LBD (ligand binding domain) (Homo sapiens, UniProt P55055)
- Sequence (P55055 222-460 limits assumed): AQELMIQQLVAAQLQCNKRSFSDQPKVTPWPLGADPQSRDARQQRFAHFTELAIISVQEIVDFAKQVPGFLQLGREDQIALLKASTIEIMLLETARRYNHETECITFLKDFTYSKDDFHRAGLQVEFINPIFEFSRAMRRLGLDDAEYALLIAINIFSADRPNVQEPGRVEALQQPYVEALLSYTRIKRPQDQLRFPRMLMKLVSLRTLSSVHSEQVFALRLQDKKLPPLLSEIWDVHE
- PROCEDURE DETAILS: LanthaScreen TR-FRET Liver X Receptor Coactivator Assay, LXR beta-LBD
- ASSAY SETUP: Inflection Point (potency), co-activator recruitment, relative to reference T0901317; read-out: LXR beta IP
- Excerpt: […]
Please reply with the bare figure in nM and do not write the unit itself.

Given "Cc1ccccc1C1(C(=O)N2CCC(C3CCN(c4ccc(C(=O)N(C)C)c(Cl)c4)CC3)CC2)CCC1" , respond with its EC50.
18

Given "CN(C)C(=O)c1c(Cl)cc(N2CCC(C3CCN(C(=O)c4c(F)cccc4F)CC3)CC2)cc1Cl" , respond with its EC50.
101

Given "CC(C)(C(=O)N1CCC(C2CCN(c3cccc(S(C)(=O)=O)c3)CC2)CC1)c1ccccc1" , respond with its EC50.
185

Given "CN(C)C(=O)c1ccc(N2CCC(C3CCN(C(=O)c4c(F)cccc4C(F)(F)F)CC3)CC2)cc1Cl" , respond with its EC50.
113

Given CC(C)C(O)(C(=O)N1CCC(C2CCN(c3ccc(C(=O)N(C)C)c(Cl)c3)CC2)CC1)C1CC1 (stereo not shown) , respond with its EC50.
52

Given "CNC(=O)c1ccc(N2CCC(C3CCN(C(=O)[C@](O)(c4ccccc4)C(F)(F)F)CC3)CC2)cc1Cl" , respond with its EC50.
341

Given "Cc1nnc(CN(C)C(=O)c2ccc(N3CCC(C4CCN(C(=O)[C@](O)(c5ccccc5)C(F)(F)F)CC4)CC3)cc2Cl)o1" , respond with its EC50.
334

Given CN(C)C(=O)c1ccc(N2CCC(C3CCN(C(=O)C(O)(c4ccccc4)C(F)(F)F)CC3)CC2)nc1Cl (stereo not shown) [Example B-13] , respond with its EC50.
291

Given "CN(C)C(=O)c1ccc(N2CCC(C3CCN(C(=O)C(C)(C)c4ccccc4)CC3)CC2)cc1Cl" , respond with its EC50.
14

Given CC(C)CC(O)(C(=O)N1CCC(C2CCN(c3ccc(C(=O)N(C)C)c(Cl)c3)CC2)CC1)C(F)(F)F (stereo not shown) [Example A-90] , respond with its EC50.
108

Given "CN(C)C(=O)c1ccc(N2CCC(C3CCN(C(=O)C4(c5ccccc5F)CCCC4)CC3)CC2)cc1Cl" , respond with its EC50.
11

Given CC1CCC(C)N1C(=O)c1ccc(N2CCC(C3CCN(C(=O)[C@](O)(c4ccccc4)C(F)(F)F)CC3)CC2)cc1Cl (stereo partly shown) , respond with its EC50.
53

Given CN(C)C(=O)c1ccc(N2CCC(C3CCN(C(=O)C(C)(c4ccccc4)C(F)(F)F)CC3)CC2)cc1Cl (stereo not shown) , respond with its EC50.
14

Given CCCC(O)(C(=O)N1CCC(C2CCN(c3ccc(C(=O)N(C)C)c(Cl)c3)CC2)CC1)C(F)(F)F (stereo not shown) [Example A-70] , respond with its EC50.
177

Given "CN(C)C(=O)c1ccc(N2CCC(C3CCN(C(=O)C(C)(C)c4ccc(Cl)cc4Cl)CC3)CC2)cc1Cl" , respond with its EC50.
33

Given CC[C@](O)(C(=O)N1CCC(C2CCN(c3ccc(C(=O)N(C)C)c(Cl)c3)CC2)CC1)C(F)(F)F (single isomer, unassigned) , respond with its EC50.
61

Given "Cc1ccc(F)c(C(=O)N2CCC(C3CCN(c4ccc(C(=O)N(C)C)c(Cl)c4)CC3)CC2)c1F" , respond with its EC50.
164

Given "CN(C)S(=O)(=O)c1ccc(N2CCC(C3CCN(C(=O)[C@](O)(c4ccccc4)C(F)(F)F)CC3)CC2)cc1Cl" , respond with its EC50.
371

Given "O=C(c1ccc(N2CCC(C3CCN(C(=O)[C@](O)(c4ccccc4)C(F)(F)F)CC3)CC2)cc1Cl)N1CC(O)C1" , respond with its EC50.
453

Given CC(C)C(O)(C(=O)N1CCC(C2CCN(c3ccc(C(=O)N4CCOC[C@H]4C)c(Cl)c3)CC2)CC1)C(F)(F)F (stereo partly shown) , respond with its EC50.
219

Given "CC(C)(C)OC(=O)NC1CN(C(=O)c2ccc(N3CCC(C4CCN(C(=O)OC(C)(C)C)CC4)CC3)cc2Cl)C1" , respond with its EC50.
29

Given CNC(=O)c1ccc(N2CCC(C3CCN(C(=O)C(O)(C(C)C)C(F)(F)F)CC3)CC2)cc1Cl (stereo not shown) , respond with its EC50.
111

Given "CN(C)C(=O)c1ccc(N2CCC(C3CCN(S(=O)(=O)c4ccccc4C#N)CC3)CC2)cc1Cl" , respond with its EC50.
45

Given COc1cccc([C@](O)(C(=O)N2CCC(C3CCN(c4ccc(C(=O)N(C)C)c(Cl)c4)CC3)CC2)C(F)(F)F)c1 (single isomer, unassigned) , respond with its EC50.
251

Given "CN(C)C(=O)c1ccc(N2CCC(C3CCN(S(=O)(=O)c4ccccc4)CC3)CC2)cc1Cl" , respond with its EC50.
496

Given CC(C)N(C)C(=O)c1ccc(N2CCC(C3CCN(C(=O)C(O)(C(C)C)C(F)(F)F)CC3)CC2)cc1Cl (stereo not shown) , respond with its EC50.
111

Given "C#CC(C)(C)C(=O)N1CCC(C2CCN(c3ccc(C(=O)N(C)C)c(Cl)c3)CC2)CC1" , respond with its EC50.
512

Given "CN(C)C(=O)c1ccc(N2CCC(C3CCN(C(=O)C4(c5cc(F)cc(F)c5)CCCC4)CC3)CC2)cc1Cl" , respond with its EC50.
216

* * *

- TESTED TARGET: GST tagged LXRalpha LBD (ligand binding domain) (Homo sapiens)
- Construct: purchased Invitrogen pv4655
- Sequence (Q13133 209-447 limits assumed): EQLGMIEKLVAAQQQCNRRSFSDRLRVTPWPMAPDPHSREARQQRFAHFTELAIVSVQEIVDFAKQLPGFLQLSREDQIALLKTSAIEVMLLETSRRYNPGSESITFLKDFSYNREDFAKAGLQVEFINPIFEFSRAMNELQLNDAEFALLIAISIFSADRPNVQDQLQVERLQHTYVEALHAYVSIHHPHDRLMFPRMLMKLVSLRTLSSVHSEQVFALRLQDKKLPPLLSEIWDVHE
- PROCEDURE DETAILS: LanthaScreen TR-FRET Liver X Receptor Coactivator Assay, LXR alpha-LBD
- Assay type: biochemical
- ASSAY SETUP: activity at max dose (efficacy), relative to reference T0901317; read-out: LXR alpha act @ max dose (%)
PROPERTY NAME: Emax (%)
Please reply with the bare figure in % and do not write the unit itself.

Given "CN(C)C(=O)c1ccc(N2CCC(C3CCN(C(=O)OC(C)(C)C)CC3)CC2)cc1Cl" , respond with its Emax.
76

Given CC(c1ccon1)N(C)C(=O)c1ccc(N2CCC(C3CCN(C(=O)[C@](O)(c4ccccc4)C(F)(F)F)CC3)CC2)cc1Cl (stereo partly drawn) , respond with its Emax.
18

Given "CN(C)C(=O)c1ccc(N2CCC(C3CCN(C(=O)C4(c5ccccc5)CCC4)CC3)CC2)nc1Cl" , respond with its Emax.
43

Given "CN(C)C(=O)c1c(Cl)cc(N2CCC(C3CCN(C(=O)c4c(F)cccc4F)CC3)CC2)cc1Cl" , respond with its Emax.
24

Given CC1CCCN(C(=O)c2ccc(N3CCC(C4CCN(C(=O)[C@](O)(c5ccccc5)C(F)(F)F)CC4)CC3)cc2Cl)C1 (stereo partly drawn) , respond with its Emax.
0

Given O=C(c1ccc(N2CCC(C3CCN(C(=O)[C@@](O)(c4ccccc4)C(F)(F)F)CC3)CC2)cc1Cl)N1CCCC1 (single isomer, unassigned) , respond with its Emax.
33

Given O=C(c1ccc(N2CCC(C3CCN(C(=O)[C@](O)(c4ccccc4)C(F)(F)F)CC3)CC2)cc1Cl)N1CCC(O)C1 (stereo partly drawn) , respond with its Emax.
27

Given COc1cccc(C(O)(C(=O)N2CCC(C3CCN(c4ccc(C(=O)N(C)C)c(Cl)c4)CC3)CC2)C(F)(F)C(F)(F)F)c1 (stereo not drawn) , respond with its Emax.
25

Given "CN(C)C(=O)c1ccc(N2CCC(C3CCN(C(=O)C(C)(C)c4cccc(F)c4)CC3)CC2)cc1Cl" , respond with its Emax.
42

Given "CN(CCO)C(=O)c1ccc(N2CCC(C3CCN(C(=O)[C@](O)(c4ccccc4)C(F)(F)C(F)(F)F)CC3)CC2)cc1Cl" , respond with its Emax.
54

Given CN(C)C(=O)c1ccc(N2CCC(C3CCN(C(=O)C(O)(c4ccccc4)C(F)(F)F)CC3)CC2)cc1Cl (stereo not drawn) , respond with its Emax.
27

Given CC(C)C(O)(C(=O)N1CCC(C2CCN(c3ccc(C(=O)N(C)C)c(Cl)c3)CC2)CC1)C(F)(F)C(F)(F)F (stereo not drawn) , respond with its Emax.
45

Given "CN(Cc1ccon1)C(=O)c1ccc(N2CCC(C3CCN(C(=O)c4c(F)cccc4F)CC3)CC2)cc1Cl" , respond with its Emax.
38

Given "COCCCN(C)C(=O)c1ccc(N2CCC(C3CCN(C(=O)[C@](O)(c4ccccc4)C(F)(F)F)CC3)CC2)cc1Cl" , respond with its Emax.
26

Given "COC1CN(C(=O)c2ccc(N3CCC(C4CCN(C(=O)[C@](O)(c5ccccc5)C(F)(F)F)CC4)CC3)cc2Cl)C1" , respond with its Emax.
19

Given C=C(C)C(O)(C(=O)N1CCC(C2CCN(c3ccc(C(=O)N(C)C)c(Cl)c3)CC2)CC1)C(F)(F)F (stereo not drawn) , respond with its Emax.
27

Given CC(C)C(O)(C(=O)N1CCC(C2CCN(c3ccc(C(=O)N(C)C)c(Cl)n3)CC2)CC1)C(F)(F)F (stereo in doubt) [Example B-6] , respond with its Emax.
46

Given CN(C)C(=O)c1ccc(N2CCC(C3CCN(C(=O)C(c4ccccc4)C(F)(F)F)CC3)CC2)cc1Cl (stereo not drawn) , respond with its Emax.
33

Given "CN(C)C(=O)c1ccc(N2CCC(C3CCN(C(=O)c4c(Cl)cccc4Cl)CC3)CC2)nc1Cl" , respond with its Emax.
55

Given "CN(C)C(=O)c1ccc(N2CCC(C3CCN(C(=O)C4(c5ccccc5Cl)CCCC4)CC3)CC2)cc1Cl" , respond with its Emax.
67

Given "CN(C)C(=O)c1ccc(N2CCC(C3CCN(c4ccccc4C(F)(F)F)CC3)CC2)cc1Cl" , respond with its Emax.
27

Given CC(C)C(O)(C(=O)N1CCC(C2CCN(c3ccc(C(=O)N(C)C)c(Cl)n3)CC2)CC1)C1CC1 (stereo not drawn) , respond with its Emax.
71

Given "O=C(c1ccc(N2CCC(C3CCN(C(=O)[C@](O)(c4ccccc4)C(F)(F)C(F)(F)F)CC3)CC2)cc1Cl)N1CCC[C@H]1CO" , respond with its Emax.
72

Given "CN(C)C(=O)c1ccc(N2CCC(C3CCN(C(=O)C4(c5ccccc5F)CCC4)CC3)CC2)cc1Cl" , respond with its Emax.
61

Given "CN(C)C(=O)c1ccc(N2CCC(C3CCN(C(=O)C4(c5cc(F)ccc5F)CCC4)CC3)CC2)cc1Cl" , respond with its Emax.
31

Given CC1CCC(C)N1C(=O)c1ccc(N2CCC(C3CCN(C(=O)[C@](O)(c4ccccc4)C(F)(F)F)CC3)CC2)cc1Cl (stereo partly drawn) , respond with its Emax.
0

Given CCC1CCCN1C(=O)c1ccc(N2CCC(C3CCN(C(=O)[C@](O)(c4ccccc4)C(F)(F)F)CC3)CC2)cc1Cl (stereo partly drawn) , respond with its Emax.
15
